src = ChEMBL document CHEMBL1909046

Test: DRUGMATRIX: ATPase, Na+/K+ enzyme inhibition (substrate: ATP)
Assay type: tissue-based, Sus scrofa, Heart
Assay Setup: Not Active = under 50% inhibition at 10 µM
Reported Endpoint: IC50

>  <Compound>
C=CCN1CC[C@]23c4c5ccc(O)c4O[C@H]2/C(=N/N=C2\CC[C@@]4(O)[C@H]6Cc7ccc(O)c8c7[C@@]4(CCN6CC=C)[C@H]2O8)CC[C@@]3(O)[C@H]1C5 [NALOXONAZINE]

>  <Reported Result>
Not Active

$$$$
>  <Compound>
O=C(O)COC(=O)Cc1ccccc1Nc1c(Cl)cccc1Cl [ACECLOFENAC]

>  <Reported Result>
Not Active

$$$$
>  <Compound>
NC(=O)NC(=O)Cc1ccccc1 [PHENACEMIDE]

>  <Reported Result>
Not Active

$$$$
>  <Compound>
Cc1cc(C(C)(C)C)c(O)c(C)c1CC1=NCCN1 [OXYMETAZOLINE]

>  <Reported Result>
Not Active

$$$$
>  <Compound>
Cc1cnc(NC(=O)C2=C(O)c3ccccc3S(=O)(=O)N2C)s1 [MELOXICAM]

>  <Reported Result>
Not Active

$$$$
>  <Compound>
C1CCN2C[C@@H]3C[C@@H](CN4CCCC[C@@H]34)[C@H]2C1 [SPARTEINE]

>  <Reported Result>
Not Active

$$$$
>  <Compound>
O=C1CC[C@@]2(O)[C@H]3Cc4ccc(O)c5c4[C@@]2(CCN3CC2CC2)[C@H]1O5 [NALTREXONE]

>  <Reported Result>
Not Active

$$$$
>  <Compound>
C[C@H](C(=O)O)c1ccc2oc(-c3ccc(F)cc3)nc2c1 [FLUNOXAPROFEN]

>  <Reported Result>
Not Active

$$$$
